Where do these numbers come from? They come from patent US9873709B2.

Tested on: JAK1-dependent STAT6 phosphorylation downstream of IL-13 stimulation in TF-1 human erythroleukemia cells
PROCEDURE DETAILS: cells
ASSAY CONDITIONS: TF-1, read-out: IL-13-pSTAT6 IC50
pIC50: −log10 of the molar value.
EXPERIMENTAL READOUT: pIC50

COMPOUND | pIC50
CN1CCC(N(C)C(=O)c2ccc(Nc3nc4c(C5=CCN(C(=O)N6CC(C)(C)C6)CCC5)cccn4n3)cc2)CC1 | 6.75

[1] CNC(=O)C1CN(C)CCN1C(=O)c1ccc(Nc2nc3c(C4=CCN(C(=O)CCC(F)(F)F)CC4)cccn3n2)cc1 (stereo not drawn)
[2] CN(C)c1ccc(C2CCCN(C(=O)c3ccc(Nc4nc5c(C6=CCN(C(=O)CCC(F)(F)F)CC6)cccn5n4)cc3)C2)nc1 (stereo not drawn)
*Q* Of the pair 1 and 2 , name the member with the lesser recorded pIC50. Kindly give the label for the entry you pick.
*A* 1

====

System: JAK1-dependent STAT6 phosphorylation downstream of IL-13 stimulation in TF-1 human erythroleukemia cells
PROCEDURE DETAILS: cells
ASSAY CONDITIONS: TF-1, read-out: IL-13-pSTAT6 IC50
EXPERIMENTAL READOUT: IC50 (nM)

Solved entries:
MOLECULE | IC50 [nM]
NC1CC2(CCN(C(=O)c3ccc(Nc4nc5c(C6=CCN(C(=O)CCC(F)(F)F)CC6)cccn5n4)cc3)CC2)C1 | 109
CC1CCCCN1CCCNC(=O)c1ccc(Nc2nc3c(C4=CCN(C(=O)CCC(F)(F)F)CC4)cccn3n2)cc1 (centres unmarked) | 15.7
N#CCCN1CCN(C(=O)c2ccc(Nc3nc4c(N5CCC(O)(c6ccc(Cl)cc6)CC5)cccn4n3)cc2)CC1 | 12.1
O=C(NCC1CCNCC1)c1ccc(Nc2nc3c(C4=CCN(C(=O)CCC(F)(F)F)CC4)cccn3n2)cc1 | 71.4
CN1CCC(N(C)C(=O)c2ccc(Nc3nc4c(C5=CCN(C(=O)CCC#N)CC5)cccn4n3)cc2)CC1 | 248

[P] O=C(CCC(F)(F)F)N1CC=C(c2cccn3nc(Nc4ccc(C(=O)N5CCC6CNCC65)cc4)nc23)CC1 (centres unmarked)
[Q] Cc1cccnc1CN(C)C(=O)c1ccc(Nc2nc3c(C4=CCN(C(=O)CCC(F)(F)F)CC4)cccn3n2)cc1
*Q* P or Q : whose IC50 is greater? Kindly give the label for the entry you pick.
*A* P

====

System: JAK1-dependent STAT6 phosphorylation downstream of IL-13 stimulation in TF-1 human erythroleukemia cells
PROCEDURE DETAILS: cells
ASSAY CONDITIONS: TF-1, read-out: IL-13-pSTAT6 IC50
EXPERIMENTAL READOUT: IC50 (nM)

Solved entries:
COMPOUND | EXPERIMENTAL READOUT | UNIT | RESULT VALUE
Cn1ccnc1CN1CCN(C(=O)c2ccc(Nc3nc4c(C5=CCN(C(=O)CCC(F)(F)F)CC5)cccn4n3)cc2)CC1 | IC50 | nM | 30.1
CN1CCC(N(C)C(=O)c2ccc(Nc3nc4c(C5=CCC(CC#N)(c6ccc(Cl)cc6)CC5)cccn4n3)cc2)CC1 (stereo not shown) | IC50 | nM | 62.7
CN1CCN(C2CCN(C(=O)c3ccc(Nc4nc5c(N6CCC(O)(c7ccc(Cl)cc7)CC6)cccn5n4)cc3)CC2)CC1 | IC50 | nM | 29.2
N[C@]12C[C@H]1CN(C(=O)c1ccc(Nc3nc4c(C5=CCN(C(=O)CCC(F)(F)F)CC5)cccn4n3)cc1)C2 | IC50 | nM | 17.5

[I] CNC(=O)C1CN(C(=O)c2ccc(Nc3nc4c(C5=CCN(C(=O)CCC(F)(F)F)CC5)cccn4n3)cc2)CCN1CCc1ccccc1 (stereo not shown)
[II] O=C(NCCC1CCNCC1)c1ccc(Nc2nc3c(C4=CCN(C(=O)CCC(F)(F)F)CC4)cccn3n2)cc1
[III] CCOC(=O)N1CC=C(c2cccn3nc(Nc4ccc(C(=O)NC5CCNCC5)cc4)nc23)CC1
*Q* Exam item: list the entries in increasing order of IC50. Put the labels in the requested order and write them down.
*A* I, II, III
